# System: MCF7
# assay.text: Cytotoxicity against human MCF7 cells after 24 hrs using Annexin VeFITC/propidium iodide staining by MTT assay
# Assay type: functional, cell-based
# conditions: MCF7, 24 h
parameter.measured: log10 IC50 (log10 of the value in nM)

[
  {
    "structure.smiles.string": "COc1ccc(-c2nnc(SCC(=O)c3ccc(Br)cc3)o2)c(O)c1",
    "measured.result": 2.41
  },
  {
    "structure.smiles.string": "CC(C)(C)c1ccc(-c2nnc(SCC(=O)c3ccc(Br)cc3)o2)cc1",
    "measured.result": 3.29
  },
  {
    "structure.smiles.string": "O=C(CSc1nnc(-c2cccc3ccccc23)o1)c1ccccc1",
    "measured.result": 2.36
  },
  {
    "structure.smiles.string": "O=C(CSc1nnc(-c2ccccc2F)o1)c1ccccc1",
    "measured.result": 2.41
  },
  {
    "structure.smiles.string": "Cc1ccc(-c2nnc(SCC(=O)c3ccccc3)o2)c(O)c1",
    "measured.result": 2.18
  },
  {
    "structure.smiles.string": "CCOc1ccccc1-c1nnc(SCC(=O)c2ccc(Br)cc2)o1",
    "measured.result": 2.66
  },
  {
    "structure.smiles.string": "Cc1ccc(-c2nnc(SCC(=O)c3ccc(Br)cc3)o2)c(O)c1",
    "measured.result": 3.32
  },
  {
    "structure.smiles.string": "CN(C)c1ccc(-c2nnc(SCC(=O)c3ccccc3)o2)cc1",
    "measured.result": 2.32
  },
  {
    "structure.smiles.string": "O=C(CSc1nnc(-c2ccnc(Cl)c2)o1)c1ccc(Br)cc1",
    "measured.result": 2.43
  },
  {
    "structure.smiles.string": "COc1ccc(-c2nnc(SCC(=O)c3ccccc3)o2)c(O)c1",
    "measured.result": 2.45
  },
  {
    "structure.smiles.string": "O=C(CSc1nnc(-c2ccncc2)o1)c1ccccc1",
    "measured.result": 2.57
  },
  {
    "structure.smiles.string": "COc1ccccc1-c1nnc(SCC(=O)c2ccccc2)o1",
    "measured.result": 3.32
  },
  {
    "structure.smiles.string": "O=C(CSc1nnc(-c2ccnc(Cl)c2)o1)c1ccccc1",
    "measured.result": 3.11
  },
  {
    "structure.smiles.string": "CN(C)c1ccc(-c2nnc(SCC(=O)c3ccc(Br)cc3)o2)cc1",
    "measured.result": 2.74
  },
  {
    "structure.smiles.string": "O=C(CSc1nnc(-c2ccccc2F)o1)c1ccc(Br)cc1",
    "measured.result": 2.38
  },
  {
    "structure.smiles.string": "COc1cc(OC)cc(-c2nnc(SCC(=O)c3ccc(Br)cc3)o2)c1",
    "measured.result": 2.43
  },
  {
    "structure.smiles.string": "O=C(CSc1nnc(-c2cccc3ccccc23)o1)c1ccc(Br)cc1",
    "measured.result": 2.41
  },
  {
    "structure.smiles.string": "COc1cc(OC)cc(-c2nnc(SCC(=O)c3ccccc3)o2)c1",
    "measured.result": 2.23
  },
  {
    "structure.smiles.string": "CCOc1ccccc1-c1nnc(SCC(=O)c2ccccc2)o1",
    "measured.result": 3.43
  },
  {
    "structure.smiles.string": "COc1ccccc1-c1nnc(SCC(=O)c2ccc(Br)cc2)o1",
    "measured.result": 2.78
  },
  {
    "structure.smiles.string": "O=C(CSc1nnc(-c2ccncc2)o1)c1ccc(Br)cc1",
    "measured.result": 3.63
  },
  {
    "structure.smiles.string": "CC(C)(C)c1ccc(-c2nnc(SCC(=O)c3ccccc3)o2)cc1",
    "measured.result": 1.70
  },
  {
    "structure.smiles.string": "Nc1cc(-c2nnc(SCC(=O)c3ccc(Br)cc3)o2)ccn1",
    "measured.result": 2.30
  },
  {
    "structure.smiles.string": "Nc1cc(-c2nnc(SCC(=O)c3ccccc3)o2)ccn1",
    "measured.result": 2.15
  }
]

###

# Test system: A-431
# assay.text: Cytotoxicity against human A431 cells after 24 hrs […] by MTT assay
# Format: functional, cell-based
# conditions: A-431, 24 h
Measured IC50 by item

[
  {
    "compound": "O=C(CSc1nnc(-c2ccnc(Cl)c2)o1)c1ccc(Br)cc1",
    "IC50, nM": 50
  },
  {
    "compound": "O=C(CSc1nnc(-c2cccc3ccccc23)o1)c1ccccc1",
    "IC50, nM": 130
  },
  {
    "compound": "COc1cc(OC)cc(-c2nnc(SCC(=O)c3ccc(Br)cc3)o2)c1",
    "IC50, nM": 60
  },
  {
    "compound": "O=C(CSc1nnc(-c2ccncc2)o1)c1ccccc1",
    "IC50, nM": 1000
  },
  {
    "compound": "COc1ccc(-c2nnc(SCC(=O)c3ccc(Br)cc3)o2)c(O)c1",
    "IC50, nM": 330
  },
  {
    "compound": "CC(C)(C)c1ccc(-c2nnc(SCC(=O)c3ccc(Br)cc3)o2)cc1",
    "IC50, nM": 100
  },
  {
    "compound": "O=C(CSc1nnc(-c2ccccc2F)o1)c1ccc(Br)cc1",
    "IC50, nM": 200
  },
  {
    "compound": "COc1ccccc1-c1nnc(SCC(=O)c2ccccc2)o1",
    "IC50, nM": 20
  },
  {
    "compound": "CCOc1ccccc1-c1nnc(SCC(=O)c2ccccc2)o1",
    "IC50, nM": 650
  },
  {
    "compound": "Cc1ccc(-c2nnc(SCC(=O)c3ccccc3)o2)c(O)c1",
    "IC50, nM": 60
  },
  {
    "compound": "CC(C)(C)c1ccc(-c2nnc(SCC(=O)c3ccccc3)o2)cc1",
    "IC50, nM": 170
  },
  {
    "compound": "CCOc1ccccc1-c1nnc(SCC(=O)c2ccc(Br)cc2)o1",
    "IC50, nM": 360
  },
  {
    "compound": "COc1ccccc1-c1nnc(SCC(=O)c2ccc(Br)cc2)o1",
    "IC50, nM": 80
  },
  {
    "compound": "COc1ccc(-c2nnc(SCC(=O)c3ccccc3)o2)c(O)c1",
    "IC50, nM": 180
  },
  {
    "compound": "Cc1ccc(-c2nnc(SCC(=O)c3ccc(Br)cc3)o2)c(O)c1",
    "IC50, nM": 50
  },
  {
    "compound": "CN[C@@H]1C[C@H]2O[C@@](C)([C@@H]1OC)n1c3ccccc3c3c4c(c5c6ccccc6n2c5c31)C(=O)NC4 [STAUROSPORINE]",
    "IC50, nM": 70
  },
  {
    "compound": "Nc1cc(-c2nnc(SCC(=O)c3ccccc3)o2)ccn1",
    "IC50, nM": 10
  },
  {
    "compound": "Nc1cc(-c2nnc(SCC(=O)c3ccc(Br)cc3)o2)ccn1",
    "IC50, nM": 60
  },
  {
    "compound": "CN(C)c1ccc(-c2nnc(SCC(=O)c3ccccc3)o2)cc1",
    "IC50, nM": 160
  },
  {
    "compound": "O=C(CSc1nnc(-c2ccncc2)o1)c1ccc(Br)cc1",
    "IC50, nM": 780
  },
  {
    "compound": "O=C(CSc1nnc(-c2ccccc2F)o1)c1ccccc1",
    "IC50, nM": 50
  },
  {
    "compound": "COc1cc(OC)cc(-c2nnc(SCC(=O)c3ccccc3)o2)c1",
    "IC50, nM": 40
  },
  {
    "compound": "O=C(CSc1nnc(-c2ccnc(Cl)c2)o1)c1ccccc1",
    "IC50, nM": 3200
  },
  {
    "compound": "CN(C)c1ccc(-c2nnc(SCC(=O)c3ccc(Br)cc3)o2)cc1",
    "IC50, nM": 200
  },
  {
    "compound": "O=C(CSc1nnc(-c2cccc3ccccc23)o1)c1ccc(Br)cc1",
    "IC50, nM": 160
  }
]
